All values here come from patent US20180179273A1.

biological target: human alpha-synuclein (human, UniProt P37840 1-140); assay: SPR Biacore 3000, IgG captured by anti-human IgG on CM5 chip
Parameter Measured: log10 of Ka (log10 of the value in M⁻¹)
Give log10 of Ka, with Ka taken in M⁻¹.

Would you please look over these solved cases?
8D9 (antibody, V domains shown) VH: QVQLVQSGAEVKKPGASVKVSCKASGYTFTSYWMHWMRQAPGQGLEWIGRIDPNSGTTKYNVNFKTRATLTVDKSTSTAYMELSSLRSEDTAVYYCARLGHYGNLYAKDYWGQGTLVT VL: EIVLTQSPATLSLSPGERATLSCSASSSVSYIHWYQQKPGQAPRRWIYDTSKLASGVPARFSGSGSGTDYTLTISSLEPEDFAVYYCQQWSSNPPTFGQGTKLEIK; 8.18
9C12 (antibody, V domains shown) VH: QVQLVQSGAEVKKPGASVKVSCKASGYTFTSYWMHWMRQAPGQGLEWIGRIDPNSGTTKYNVNIKTRATLTVDKSTSTAYMELSSLRSEDTAVYYCARLGHYGNLYAMDYWGQGTLVT VL: EIVLTQSPATLSLSPGERATLSCSASSSVSYMHWYQQKPGQAPRRLIYDTSKLASGVPARFSGSGSGTDYTLTISSLEPEDFAVYYCQQWSSNPPTFGQGTKLEIK; 8.25
7C4 (antibody, V domains shown) VH: QVQLVQSGAEVKKPGASVKVSCKASGYTFTRYWMHWMRQAPGQGPEWIGRIDPNSGTTKYNVNFKTRATLTVDKSTSTAYMELSSLRSEDTAVYYCARLGHYGNLYAMDYWGQGTLVT VL: EIVLTQSPATLSLSPGERATLSCSASSSVSFMHWYQQKPGQAPRRWIYDTSKLASGVPARFSGSGSGTDYTLTISSLEPEDFAVYYCQQWSSNPPTFGQGTKLEIK; 8.09
ch2E6 (antibody, V domains shown, also called chimeric 2E6) VH: QVQLQQPGAELVKPGASVKLSCTASGYTFTSYWMHWMKQRPGRGLEWIGRIDPNSGTTKYNVNFKTKATLTVDKPSSTAYMHLSSLTSEDSAVYYCARLGHYGNLYAMDYWGQGTSVT VL: QIVLTQSPAIMSASPGEKVTMTCSASSSVSYMHWYQQKSGTSPKRWIYDTSKLASGVPTRFSGSGSGTSYSLTISSMDTEDAATYYCQQWSSNPPTFGAGTKLELK; 7.25

Consider now this further binder.
Asked: Which log10 of Ka value belongs to 2E6-HLD-1 (antibody, V domains shown, Humanized 2E6 tested as IgG; also called Humanized HLD-1) VH: QVQLVQSGAEVKKPGASVKVSCKASGYTFTSYWMHWMRQAPGQGLEWIGRIDPNSGTTKYNVNFKTRATLTVDKSTSTAYMELSSLRSEDTAVYYCARLGHYGNLYAMDYWGQGTLVT VL: EIVLTQSPATLSLSPGERATLSCSASSSVSYMHWYQQKPGQAPRRWIYDTSKLASGVPARFSGSGSGTDYTLTISSLEPEDFAVYYCQQWSSNPPTFGQGTKLEIKR ?
Given back: 7.64
